# Tested on: Septoria tritici
# experimental-details: Fungicidal activity: leaf blotch of wheat, one-day protectant and three-day curative tests on wheat plants
# Format: in vivo
# protocol-conditions: Zymoseptoria tritici, 24 h; One-Day Protectant (1 DP), 100 ppm, wheat plants (variety Yuma); read-out: SEPTTR 100 PPM 1 DP (% Disease Control rating)
test-readout: pest or weed control at 100 ppm

For orientation, consider the following solved cases.
[[record]]
smiles = "Cc1cc(S(=O)(=O)n2cc(F)/c(=N\\Cc3ccccc3F)n(C)c2=O)c(C)cc1Cl"
result = "0 to 25%"

[[record]]
smiles = "COc1ccc(S(=O)(=O)n2cc(F)/c(=N\\C(C)=O)n(C)c2=O)cc1"
result = "76 to 100%"

[[record]]
smiles = "C/N=c1\\c(F)cn(S(=O)(=O)c2sc(C)nc2C)c(=O)n1C"
result = "26 to 50%"

[[record]]
smiles = "COC(=O)/N=c1\\c(F)cn(S(=O)(=O)c2cccc(C)c2)c(=O)n1C"
result = "0 to 25%"

[[record]]
smiles = "CC(=O)/N=c1\\c(F)cn(S(=O)(=O)c2cc(C)c(Cl)cc2C)c(=O)n1C"
result = "76 to 100%"

[[record]]
smiles = "C/N=c1\\c(F)cn(S(=O)(=O)c2cc(OC)ccc2OC)c(=O)n1C"
result = "76 to 100%"

[[record]]
smiles = "[2H]C([2H])([2H])/N=c1\\c(F)cn(S(=O)(=O)c2ccc(OC)cc2)c(=O)n1C([2H])([2H])[2H]"
result = "0 to 25%"

[[record]]
smiles = "Cc1ccc(S(=O)(=O)n2cc(F)/c(=N/C(=O)C(C)C)n(COC(=O)C(C)C)c2=O)cc1"
result = "0 to 25%"


Consider the following items and state reported pest or weed control at 100 ppm for each.
1. C/N=c1\c(F)cn(S(=O)(=O)c2ccc(OC(F)(F)F)cc2)c(=O)n1C
2. C/N=c1\c(F)cn(S(=O)(=O)c2cc(Cl)cc(Cl)c2)c(=O)n1C
3. CC(C)c1ccc(S(=O)(=O)n2cc(F)/c(=N\Cc3ccccc3F)n(C)c2=O)cc1
4. Cn1c(=O)n(S(=O)(=O)c2ccccc2)cc(F)/c1=N\Cc1ccccc1F

## Result
76 to 100%
26 to 50%
0 to 25%
0 to 25%

Your task in this section: give pest or weed control at 100 ppm for each listed record.
1. COc1ccc(S(=O)(=O)n2cc(F)/c(=N\Cc3ccccc3F)n(C)c2=O)cc1
2. Cc1ccc(S(=O)(=O)n2cc(F)/c(=N\C(=O)c3ccccc3)n(C(=O)c3ccccc3)c2=O)cc1
3. C/N=c1\c(F)cn(S(=O)(=O)c2ccc(OC)c(F)c2)c(=O)n1C
4. C/N=c1\c(F)cn(S(=O)(=O)c2ccccc2OC)c(=O)n1C
5. C/N=c1\c(F)cn(S(=O)(=O)c2cc(C)c(Cl)cc2C)c(=O)n1C

## Result
0 to 25%
0 to 25%
76 to 100%
76 to 100%
76 to 100%

###

So I've got a bunch of compounds here, and I need their pest or weed control at 100 ppm values.
# Tested on: Septoria tritici
# experimental-details: Fungicidal activity: leaf blotch of wheat, one-day protectant and three-day curative tests on wheat plants
# Format: in vivo
# protocol-conditions: Zymoseptoria tritici, 72 h; Three-Day Curative (3 DC), 100 ppm, wheat plants (variety Yuma); read-out: SEPTTR 100 PPM 3 DC (% Disease Control rating)

Here are 3 compounds together with their reported answers.
[[record]]
smiles = "C/N=c1\\c(F)cn(S(=O)(=O)c2sc(C)nc2C)c(=O)n1C"
result = "76 to 100%"

[[record]]
smiles = "COC(=O)/N=c1\\c(F)cn(S(=O)(=O)c2ccc(C)cc2)c(=O)n1C"
result = "0 to 25%"

[[record]]
smiles = "CC(=O)/N=c1\\c(F)cn(S(=O)(=O)c2cccc(C)c2)c(=O)n1C"
result = "0 to 25%"


Give pest or weed control at 100 ppm for each listed item.
1. CCc1ccc(S(=O)(=O)n2cc(F)/c(=N\Cc3ccccc3F)n(C)c2=O)cc1
2. C/N=c1\c(F)cn(S(=O)(=O)c2ccc(C)cc2)c(=O)n1C
3. CC(=O)/N=c1\c(F)cn(S(=O)(=O)c2cc(Cl)sc2Cl)c(=O)n1C

## Result
1. 0 to 25%
2. 51 to 75%
3. 51 to 75%

###

# Tested on: Septoria tritici
# experimental-details: Fungicidal activity: leaf blotch of wheat, one-day protectant and three-day curative tests on wheat plants
# Assay type: in vivo
# protocol-conditions: Zymoseptoria tritici, 72 h, read-out: SEPTTR 100 PPM 3 DC (% Disease Control rating)
test-readout: pest or weed control at 100 ppm

[[record]]
smiles = "CCc1ccc(S(=O)(=O)n2cc(F)/c(=N\\C(=O)Oc3ccccc3)n(C)c2=O)cc1"
experimental_system = "Septoria tritici"
result = "0 to 25%"

[[record]]
smiles = "Cc1cc(S(=O)(=O)n2cc(F)/c(=N\\C(=O)Oc3ccccc3)n(C)c2=O)c(C)cc1Cl"
experimental_system = "Septoria tritici"
result = "0 to 25%"

[[record]]
smiles = "Cc1cccc(S(=O)(=O)n2cc(F)/c(=N\\C(=O)Oc3ccccc3)n(C)c2=O)c1"
experimental_system = "Septoria tritici"
result = "0 to 25%"

[[record]]
smiles = "COc1ccc(S(=O)(=O)n2cc(F)/c(=N\\C(=O)Oc3ccccc3)n(C)c2=O)cc1"
experimental_system = "Septoria tritici"
result = "0 to 25%"

[[record]]
smiles = "Cn1c(=O)n(S(=O)(=O)c2ccccc2)cc(F)/c1=N\\C(=O)Oc1ccccc1"
experimental_system = "Septoria tritici"
result = "76 to 100%"


For every listed record, write down its pest or weed control at 100 ppm.
1. CC(C)c1ccc(S(=O)(=O)n2cc(F)/c(=N\C(=O)Oc3ccccc3)n(C)c2=O)cc1
2. Cn1c(=O)n(S(=O)(=O)c2cc(Cl)sc2Cl)cc(F)/c1=N\C(=O)Oc1ccccc1
3. Cc1ccc(S(=O)(=O)n2cc(F)/c(=N\C(=O)Oc3ccccc3)n(C)c2=O)cc1

## Result
["0 to 25%", "76 to 100%", "26 to 50%"]

###

Task for the reader: assign each of the following compounds its reported pest or weed control at 100 ppm.
# Test system: Septoria tritici
# experimental-details: Fungicidal activity: leaf blotch of wheat, one-day protectant and three-day curative tests on wheat plants
# Type: in vivo
# protocol-conditions: Zymoseptoria tritici, 24 h; One-Day Protectant (1 DP), 100 ppm, wheat plants (variety Yuma); read-out: SEPTTR 100 PPM 1 DP (% Disease Control rating)

[[record]]
smiles = "C/N=c1\\c(F)cn(S(=O)(=O)c2cccc(F)c2)c(=O)n1C"
test_readout = "pest or weed control at 100 ppm"
result = "76 to 100%"

[[record]]
smiles = "CC(=O)/N=c1\\c(F)cn(S(=O)(=O)c2cccc(C)c2)c(=O)n1C"
test_readout = "pest or weed control at 100 ppm"
result = "76 to 100%"

[[record]]
smiles = "COC(=O)/N=c1\\c(F)cn(S(=O)(=O)c2ccc(C)cc2)c(=O)n1C"
test_readout = "pest or weed control at 100 ppm"
result = "0 to 25%"


Value of measured pest or weed control at 100 ppm for the entry Cn1c(=O)n(S(=O)(=O)c2cc(Cl)sc2Cl)cc(F)/c1=N\Cc1ccccc1F : 0 to 25%

###

Record form. Attribute: melting point. Fill in for each entry.

[[record]]
molecule = "C/N=c1\\c(F)cn(S(=O)(=O)c2ccc(OC)cc2)c(=O)n1C [Compound F1]"
test_readout = "melting point"
result = "97 to 105 °C"

[[record]]
molecule = "CC(=O)/N=c1\\c(F)cn(S(=O)(=O)c2ccc(C(C)C)cc2)c(=O)n1C [Compound F33]"
test_readout = "melting point"
result = "165 °C"

[[record]]
molecule = "CCc1ccc(S(=O)(=O)n2cc(F)/c(=N\\Cc3ccccc3F)n(C)c2=O)cc1 [Compound F55]"
test_readout = "melting point"
result = "140 to 141 °C"

[[record]]
molecule = "C/N=c1\\c(F)cn(S(=O)(=O)c2cccc(C)c2)c(=O)n1C [Compound F16]"
test_readout = "melting point"
result = "123.7 to 125.8 °C"


Please supply melting point for each of the following items, keeping them in order.
1. CCc1ccc(S(=O)(=O)n2cc(F)/c(=N\C(C)=O)n(C)c2=O)cc1 [Compound F32]
2. C/N=c1\c(F)cn(S(=O)(=O)c2ccc(C)cc2)c(=O)n1C [Compound F3]
3. Cc1ccc(S(=O)(=O)n2cc(F)/c(=N\C(=O)c3ccccc3)n(C(=O)c3ccccc3)c2=O)cc1 [Compound F37]
4. C/N=c1\c(F)cn(S(=O)(=O)c2ccsc2)c(=O)n1C [Compound F17]

## Result
["158 °C", "117 to 123 °C", "180.8 to 182.2 °C", "121.1 to 122.6 °C"]
